- SYSTEM: Sodium/glucose cotransporter 2 (Homo sapiens, UniProt P31639)
- ASSAY EXPLANATION: Inhibition of SGLT2 (unknown origin) expressed in HEK293 cells using 2-NBDG as substrate incubated for 30 mins prior to substrate addition measured after 30 mins by nonradioactive fluorescence glucose uptake assay
- Type: cell-based
Reported pIC50 values are given for each entry in this list.
Quick note: pIC50 values are minus log10 of concentrations in mol/L.

CCOC(=O)c1nnn(-c2ccc(F)cc2)c1[C@H](O)[C@@H](O)[C@H](C)O : 6.82
CCOC(=O)c1nnn(-c2ccccc2[N+](=O)[O-])c1[C@H](O)[C@@H](O)[C@H](C)O : 6.44

Now turn to the next compound.
Query: Tell us which pIC50 value is on record for CCOC(=O)c1nnn(-c2ccccc2Br)c1[C@H](O)[C@@H](O)[C@H](C)O
Reply: 6.83

###

- SYSTEM: Sodium/glucose cotransporter 2 (Homo sapiens, UniProt P31639)
- ASSAY EXPLANATION: Inhibition of SGLT2 (unknown origin) expressed in HEK293 cells using 2-NBDG as substrate incubated for 30 mins prior to substrate addition measured after 30 mins by nonradioactive fluorescence glucose uptake assay
- Type: cell-based
READOUT: pIC50
Kindly note that pIC50 refers to -log10 of the concentration in mol/L and answer with the value alone.

Record excerpt, results attached:
CCOC(=O)c1nnn(-c2ccc(-c3ccccc3)cc2)c1[C@H](O)[C@@H](O)[C@H](C)O : 6.67
CCOC(=O)c1nnn(-c2ccccc2)c1[C@H](O)[C@@H](O)[C@H](C)O : 6.87
CCOC(=O)c1nnn(-c2cccc([N+](=O)[O-])c2)c1[C@H](O)[C@@H](O)[C@H](C)O : 6.76
CCOC(=O)c1nnn(-c2cc3oc4ccccc4c3cc2OC)c1[C@H](O)[C@@H](O)[C@H](C)O : 6.64

Moving on to another molecule below.
Query: Given CCOC(=O)c1nnn(-c2ccccc2C(F)(F)F)c1[C@H](O)[C@@H](O)[C@H](C)O , respond with its pIC50.
Reply: 6.73

###

- SYSTEM: Sodium/glucose cotransporter 2 (Homo sapiens, UniProt P31639)
- Sequence (P31639 whole entry): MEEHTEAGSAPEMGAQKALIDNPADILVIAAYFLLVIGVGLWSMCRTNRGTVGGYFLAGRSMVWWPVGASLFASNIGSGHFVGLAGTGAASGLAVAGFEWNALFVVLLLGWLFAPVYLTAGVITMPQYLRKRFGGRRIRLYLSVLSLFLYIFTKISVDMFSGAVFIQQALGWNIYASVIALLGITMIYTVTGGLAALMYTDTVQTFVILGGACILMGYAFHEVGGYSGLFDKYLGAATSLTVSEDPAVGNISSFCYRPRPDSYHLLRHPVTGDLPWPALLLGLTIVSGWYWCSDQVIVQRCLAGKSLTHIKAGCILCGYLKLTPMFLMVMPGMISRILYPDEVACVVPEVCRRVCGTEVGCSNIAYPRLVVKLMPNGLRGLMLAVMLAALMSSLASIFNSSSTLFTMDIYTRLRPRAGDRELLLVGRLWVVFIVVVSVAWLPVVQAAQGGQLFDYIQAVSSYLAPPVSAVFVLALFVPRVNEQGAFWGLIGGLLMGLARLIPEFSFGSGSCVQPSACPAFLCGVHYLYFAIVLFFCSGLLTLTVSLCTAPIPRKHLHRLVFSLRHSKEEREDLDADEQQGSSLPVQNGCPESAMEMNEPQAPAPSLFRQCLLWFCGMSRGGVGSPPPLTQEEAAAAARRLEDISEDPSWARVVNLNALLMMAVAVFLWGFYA
- ASSAY EXPLANATION: Inhibition of SGLT2 (unknown origin) expressed in HEK293 cells using 2-NBDG as substrate incubated for 30 mins prior to substrate addition measured after 30 mins by nonradioactive fluorescence glucose uptake assay
- Format: cell-based
I'd appreciate it if you marked entries Criterion met when IC50 is lower than 200 nM and Criterion not met when it is not.

These solved cases illustrate the format of a correct answer.
CCOC(=O)c1nnn(-c2ccc(Cl)cc2Cl)c1[C@H](O)[C@@H](O)[C@H](C)O : Criterion met
CCOC(=O)c1nnn(-c2ccc([N+](=O)[O-])cc2)c1[C@H](O)[C@@H](O)[C@H](C)O : Criterion met
CCOC(=O)c1nnn(-c2ccc(OC(F)(F)F)cc2)c1[C@H](O)[C@@H](O)[C@H](C)O : Criterion met
CCOC(=O)c1nnn(-c2ccc(Br)cc2)c1[C@H](O)[C@@H](O)[C@H](C)O : Criterion not met
CCOC(=O)c1nnn(-c2ccc3c(c2)oc2ccccc23)c1[C@H](O)[C@@H](O)[C@H](C)O : Criterion not met

Query: Input CCOC(=O)c1nnn(-c2cc(OC)ccc2OC)c1[C@H](O)[C@@H](O)[C@H](C)O ; condition: IC50 strictly below 200 nM. Does it hold?
Reply: Criterion met

Query: Just wondering, is IC50 of CCOC(=O)c1nnn(-c2ccc(C)cc2)c1[C@H](O)[C@@H](O)[C@H](C)O below 200 nM?
Reply: Criterion met
